Experiment: ABTS test (antioxidant capacity, hydroxyl radicals from the Fenton reaction)
Type: physicochemical
Settings: after 2 hours of incubation
endpoint-name: pIC50
Answers are plain numbers, as −log10 of the molar value.

Given item Oc1ccc(/C=C/c2cc(O)cc(O)c2)cc1 [resveratrol] , the value recorded as its pIC50 is 4.52

###

I'd appreciate it if you could supply inhibition at 5 µM values for the items below.
System: microglial cell cultures treated with LPS
Test: TNF-α release (ELISA) in LPS-activated microglial cell cultures
Format: cell-based
Details: LPS 0.01 μg/ml, 24 hours of activation; compound at 5×10^-6 M; read-out: decrease in TNF-α production compared to control values

> print(dat)
                                   molecule  observed.value
1  COc1ccc(/C=C/c2cc(OC)c(CCCCCCCCCCCCCCO)c(OC)c2)cc1 [MRFA-14]       20 to 40%
2  COc1ccc(/C=C/c2cc(OC)c(CCCCCCCCCCCCO)c(OC)c2)cc1 [MRFA-12]       20 to 40%

Moving on to the next molecule.
Tested on microglial cell cultures treated with LPS, the item COc1ccc(/C=C/c2cc(OC)c(CCCCCCCCCCO)c(OC)c2)cc1 [MRFA-10] showed inhibition at 5 µM equal to 20 to 40%

Data origin, for the record: patent US20100048731A1
